Reference for the values: PubChem BioAssay (NCATS)

Assay: Quantitative High-Throughput drug screen in 47 multiple myeloma cell lines against the NCATS MIPE library collection: KMS28PE_JCRB cell viability assay (AID 1918983); also: nearly all actives have a fitted effect of over 35% in size
Settings: KMS28PE multiple myeloma viability, CellTiter-Glo ATP, 48 h; series mostly up to 45.8 µM
Records with an inconclusive call do not appear. Active and inactive are the calls of the source. Calls follow the shape of the dose curve; as a rule, active = well fitted cell-killing curve with a large enough effect; inconclusive = small, poorly fitted or top-dose-only effect, or effect the other way; inactive = no such curve, though single readings can be large or run the other way. Non-standard residues stand in square brackets, D forms with d. Residues, ends and D or L forms follow the SMILES beside them. *: point of attachment. Sta = CC(C)C[C@H](N)[C@@H](O)CC(=O)O; Isovaleryl = CC(C)CC(=O)*
Field 'call' accepts yes (1) (active), no (0) (inactive)

Use these answered entries as a reference point.
N=C(N=C(N)N)N1CCOCC1: no (0)
O=C(O)c1cccnc1Nc1cccc(C(F)(F)F)c1: no (0)
CCN(CCO)CCCC(C)Nc1ccnc2cc(Cl)ccc12 (stereo unspecified): no (0)
Cc1nccn1CC1CCc2c(c3ccccc3n2C)C1=O (stereo unspecified): yes (1)
CC(C)CC(=O)N[C@H](C(=O)N[C@H](C(=O)N[C@@H](CC(C)C)[C@@H](O)CC(=O)N[C@@H](C)C(=O)N[C@@H](CC(C)C)[C@@H](O)CC(=O)O)C(C)C)C(C)C (Isovaleryl-VV[Sta]A[Sta]-OH): no (0)
C=CCc1cc(OC)c(O)c(C(=O)NCCO)c1: no (0)

Enquiry: In this assay, the call recorded for `Cc1cc(O)c2c(c1)C(=O)c1cc(O)cc(O)c1C2=O` was what?
Return: yes (1)

Enquiry: Give the logged outcome of this assay for the following compound: `C[C@@H](c1ncncc1F)[C@](O)(Cn1cncn1)c1ccc(F)cc1F`
Return: no (0)

Enquiry: Assay result, entry `O=c1oc2cc(O)ccc2s1` — outcome?
Return: no (0)

Enquiry: Dear colleague, could you share the recorded outcome for `CC[C@]1(O)C[C@H]2CN(CCc3c([nH]c4ccccc34)[C@@](C(=O)OC)(c3cc4c(cc3OC)N(C=O)[C@H]3[C@@](O)(C(=O)OC)[C@H](OC(C)=O)[C@]5(CC)C=CCN6CC[C@]43[C@@H]65)C2)C1` when you have a moment?
Return: yes (1)

Enquiry: Name the outcome recorded for `CCN(CC)C(=S)SSC(=S)N(CC)CC` in the assay.
Return: yes (1)
